test system: K4 kissing-loop RNA reporter; assay: apparent KD of K4 kissing-loop reporter; higher = weaker reporter binding; settings: Eterna round: R107; input ligand: FMN 200 uM;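 further: bound reporter read as fluorescence of individual clusters on recovered sequencing chips by microscopy, with normalized cluster intensities fitted with a binding model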
# Lookup of reported apparent KD of K4 kissing-loop reporter keyed by entry
READOUT_TYPE: apparent KD of K4 kissing-loop reporter (nM)

>>> obs_value("UAUUCUAAUGCGGCCGCCACUGGAAGUGAUGUUUCCUCUGGCUAUCAUUUCGGACGGUAUUGUCCCAGGACCGGGCAUCCCUCUC [theeternabot_exclusion_KL_Trp_B_4]")
109
>>> obs_value("AAGUGUGUGGCGGCCGCCACUAGGAUCCAGUGAUGUUGGAGAUAUCUCGUAAGAGAUAUCCGCCAUAGGACCGGGCCAUAUAGAA [Same State - Tryptophan B (Freestyle 16)]")
862
>>> obs_value("AAGGGCUAGGCGGCCGCCACUGGUUGUGAACACAUACGAGCCAGUGAUGUUGGUAUUGUGUGCGGCAGGACCGGGCCUAGCCGAA [Exclusion - Tryptophan B (Freestyle 23)]")
360
>>> obs_value("AGAUAGGGCUGAAGGAGCGUCGGAGAAGAGAAGAAGAAAUCCAGUGAUGUUGGAUAAAUCCGACAGGUAGGUCGCAGUUUUAUGA [hbob_SS_Arginine_B_2t137]")
122
>>> obs_value("UGACUGGAUGGAAGGAGCGCUAAACUCCUAGUGAUGUUAGGGACACGAGACAAAGUCUUGAAGCAGGUAGGUCGCCAUCUAGUCU [FiskerMod 9 - Jieux - Same State - Arginine B]")
217
>>> obs_value("ACGCGCGAGACGGCCGCCACUAUACGUCGAGUGAUGUUCGAGCCAAGAUGUCGUUACGUUUAUAAUAGGACCGGGUCAAUGGAUU [theeternabot_sameState_KL_Trp_B_19]")
596
>>> obs_value("GGAUGGUAGGCGGCCGCCACUAAAACUGAACACAUACAAGCCAGUGAUGUUGGUAUGAUGAAGUAUAGGACCGGGCCUAGAUAGA [Exclusion - Tryptophan B (Freestyle 3)]")
446

FYI, the data here is from the supplement of paper PMC9170038.
